Numbers sourced from PubChem BioAssay AID2060601.

- Tested on: 874868-142-R-J2-PDC complex spheroids, growth % test/control
- assayMethodText: Anticancer human tumor 874868-142-R-J2-PDC patient-derived head and neck squamous carcinoma cell line growth inhibition [CLK]; active = viability on the fitted dose curve at most 10% of control; inactive = the rest
- measurementParameters: second compound 3.16 µM; first compound 0.0316 µM
One label from this list, please: active, inactive

Here are 5 compounds together with their reported answers.
CCCS(=O)(=O)Nc1ccc(F)c(C(=O)c2c[nH]c3ncc(-c4ccc(Cl)cc4)cc23)c1F + CNC(=O)c1ccc(Nc2nc(OC3CCCC3)c3c(-c4ccc5nc(C)oc5c4)c[nH]c3n2)c(OC)c1	inactive
CCCS(=O)(=O)Nc1ccc(F)c(C(=O)c2c[nH]c3ncc(-c4ccc(Cl)cc4)cc23)c1F + CN1CCN(c2cc(C(=O)Nc3cc4cc(-c5cnn(C)c5)ccc4cn3)ccn2)CC1	active
CC(CO)NC(=O)c1cc(-c2ccc(Cl)cc2)nn(-c2cnn(C)c2)c1=O (stereo unspecified) + CN1CCN(c2cc(C(=O)Nc3cc4cc(-c5cnn(C)c5)ccc4cn3)ccn2)CC1	active
Nc1ccn(C2OC(CO)C(O)C2(F)F)c(=O)n1 (stereo unspecified) + CNC(=O)c1ccc(Nc2nc(OC3CCCC3)c3c(-c4ccc5nc(C)oc5c4)c[nH]c3n2)c(OC)c1	inactive
C#Cc1c(F)ccc2cc(O)cc(-c3ncc4c(N5CC6CCC(C5)N6)nc(OCC56CCCN5CC(F)C6)nc4c3F)c12 (stereo unspecified) + CN1CCN(c2cc(C(=O)Nc3cc4cc(-c5cnn(C)c5)ccc4cn3)ccn2)CC1	active

I'd appreciate the recorded outcome for O=c1[nH]cc(F)c(=O)[nH]1 + CN1CCN(c2cc(C(=O)Nc3cc4cc(-c5cnn(C)c5)ccc4cn3)ccn2)CC1 from this test. active

I'd appreciate the recorded outcome for Nc1ccn(C2OC(CO)C(O)C2(F)F)c(=O)n1 (stereo unspecified) + CN1CCN(c2cc(C(=O)Nc3cc4cc(-c5cnn(C)c5)ccc4cn3)ccn2)CC1 from this test. active

I'd appreciate the recorded outcome for CCN1CCN(Cc2ccc(Nc3ncc(F)c(-c4cc(F)c5nc(C)n(C(C)C)c5c4)n3)nc2)CC1 + CN1CCN(c2cc(C(=O)Nc3cc4cc(-c5cnn(C)c5)ccc4cn3)ccn2)CC1 from this test. active

I'd appreciate the recorded outcome for COc1c(OCCCN2CCOCC2)ccc2c3n(c(=NC(=O)c4cnc(N)nc4)nc12)CCN3 + CN1CCN(c2cc(C(=O)Nc3cc4cc(-c5cnn(C)c5)ccc4cn3)ccn2)CC1 from this test. active

I'd appreciate the recorded outcome for C#Cc1c(F)ccc2cc(O)cc(-c3ncc4c(N5CC6CCC(C5)N6)nc(OCC56CCCN5CC(F)C6)nc4c3F)c12 (stereo unspecified) + CNC(=O)c1ccc(Nc2nc(OC3CCCC3)c3c(-c4ccc5nc(C)oc5c4)c[nH]c3n2)c(OC)c1 from this test. inactive

I'd appreciate the recorded outcome for CC(CO)NC(=O)c1cc(-c2ccc(Cl)cc2)nn(-c2cnn(C)c2)c1=O (stereo unspecified) + CNC(=O)c1ccc(Nc2nc(OC3CCCC3)c3c(-c4ccc5nc(C)oc5c4)c[nH]c3n2)c(OC)c1 from this test. inactive

###

- Test system: 874868-142-R-J2-PDC complex spheroids, growth % test/control
- assayMethodText: Anticancer human tumor 874868-142-R-J2-PDC cell line growth inhibition [CLK];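 also: spheroids exposed to the compounds for 7 days; 100% = DMSO vehicle control viability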
- measurementParameters: second compound 0.316 µM; first compound 0.0316 µM; active compounds read low
experimentalReadout: viability, T/C

Examples with answers:
CC1(C)CCC(CN2CCN(c3ccc(C(=O)NS(=O)(=O)c4ccc(NCC5CCOCC5)c([N+](=O)[O-])c4)c(Oc4cnc5[nH]ccc5c4)c3)CC2)=C(c2ccc(Cl)cc2)C1 + CN1CCN(c2cc(C(=O)Nc3cc4cc(-c5cnn(C)c5)ccc4cn3)ccn2)CC1	20.8%
COc1c(OCCCN2CCOCC2)ccc2c3n(c(=NC(=O)c4cnc(N)nc4)nc12)CCN3 + CN1CCN(c2cc(C(=O)Nc3cc4cc(-c5cnn(C)c5)ccc4cn3)ccn2)CC1	10.7%
Nc1ccccc1NC(=O)c1ccc(CNC(=O)OCc2cccnc2)cc1 + CNC(=O)c1ccc(Nc2nc(OC3CCCC3)c3c(-c4ccc5nc(C)oc5c4)c[nH]c3n2)c(OC)c1	61.5%
C=CC(=O)N1CCN(c2nc(=O)n(-c3c(C)ccnc3C(C)C)c3nc(-c4c(O)cccc4F)c(F)cc23)C(C)C1 (stereo not given) + CNC(=O)c1ccc(Nc2nc(OC3CCCC3)c3c(-c4ccc5nc(C)oc5c4)c[nH]c3n2)c(OC)c1	50.4%

# get_value(readout='viability, T/C', item= C=C(F)C(=O)N1CCN(c2nc(OCC3CCCN3C)nc3c2CCN(c2cccc4cccc(Cl)c24)C3)CC1CC#N (stereo not given) + CN1CCN(c2cc(C(=O)Nc3cc4cc(-c5cnn(C)c5)ccc4cn3)ccn2)CC1 ) 16.7%

# get_value(readout='viability, T/C', item= COC1C=CCC(C)C(C)S(=O)(=O)NC(=O)c2ccc3c(c2)N(CC2CCC21)CC1(CCCc2cc(Cl)ccc21)CO3 (stereo not given) + CNC(=O)c1ccc(Nc2nc(OC3CCCC3)c3c(-c4ccc5nc(C)oc5c4)c[nH]c3n2)c(OC)c1 ) 58.7%

# get_value(readout='viability, T/C', item= C#Cc1c(F)ccc2cc(O)cc(-c3ncc4c(N5CC6CCC(C5)N6)nc(OCC56CCCN5CC(F)C6)nc4c3F)c12 (stereo not given) + CNC(=O)c1ccc(Nc2nc(OC3CCCC3)c3c(-c4ccc5nc(C)oc5c4)c[nH]c3n2)c(OC)c1 ) 58.1%

# get_value(readout='viability, T/C', item= CC1(C)CCC(CN2CCN(c3ccc(C(=O)NS(=O)(=O)c4ccc(NCC5CCOCC5)c([N+](=O)[O-])c4)c(Oc4cnc5[nH]ccc5c4)c3)CC2)=C(c2ccc(Cl)cc2)C1 + CNC(=O)c1ccc(Nc2nc(OC3CCCC3)c3c(-c4ccc5nc(C)oc5c4)c[nH]c3n2)c(OC)c1 ) 56.3%

# get_value(readout='viability, T/C', item= CC(CO)NC(=O)c1cc(-c2ccc(Cl)cc2)nn(-c2cnn(C)c2)c1=O (stereo not given) + CNC(=O)c1ccc(Nc2nc(OC3CCCC3)c3c(-c4ccc5nc(C)oc5c4)c[nH]c3n2)c(OC)c1 ) 50.6%

# get_value(readout='viability, T/C', item= CC(Nc1ccc2c(c1)OCCn1cc(N3C(=O)OCC3C(F)F)nc1-2)C(N)=O (stereo not given) + CN1CCN(c2cc(C(=O)Nc3cc4cc(-c5cnn(C)c5)ccc4cn3)ccn2)CC1 ) 19.3%
